systemName: acetylcholine receptor
experimentSummary: SPR, receptor immobilised on chip, peptide at 10 uM
Values of Binding affinity (RU) strictly less than 30 RU map to yes, and values of at least 30 RU map to no.

>  <binder>
RPPFRR [6mer-2-948]

>  <labelClass>
yes

$$$$

Hello, I'm reviewing records and need to know if Binding affinity (RU) of RPKERR [6mer-2-905] is below 30 RU. Could you check?
yes

Hello, I'm reviewing records and need to know if Binding affinity (RU) of RCCAKK [6mer-2-923] is below 30 RU. Could you check?
no

Hello, I'm reviewing records and need to know if Binding affinity (RU) of KAHNKR [6mer-2-989] is below 30 RU. Could you check?
yes

Hello, I'm reviewing records and need to know if Binding affinity (RU) of KNWMRK [6mer-2-918] is below 30 RU. Could you check?
no

Hello, I'm reviewing records and need to know if Binding affinity (RU) of KPWFKR [6mer-2-965] is below 30 RU. Could you check?
no

Hello, I'm reviewing records and need to know if Binding affinity (RU) of RKKMKR [6mer-2-990] is below 30 RU. Could you check?
no

Hello, I'm reviewing records and need to know if Binding affinity (RU) of KDDVRR [6mer-2-970] is below 30 RU. Could you check?
yes

Hello, I'm reviewing records and need to know if Binding affinity (RU) of RAPIRR [6mer-2-912] is below 30 RU. Could you check?
yes

Hello, I'm reviewing records and need to know if Binding affinity (RU) of REMNKR [6mer-2-985] is below 30 RU. Could you check?
no

Hello, I'm reviewing records and need to know if Binding affinity (RU) of RTWHRR [6mer-2-983] is below 30 RU. Could you check?
no

Hello, I'm reviewing records and need to know if Binding affinity (RU) of RPKAKK [6mer-2-921] is below 30 RU. Could you check?
yes

Hello, I'm reviewing records and need to know if Binding affinity (RU) of KAKHRR [6mer-2-963] is below 30 RU. Could you check?
no

Hello, I'm reviewing records and need to know if Binding affinity (RU) of RHDARK [6mer-2-996] is below 30 RU. Could you check?
no

Hello, I'm reviewing records and need to know if Binding affinity (RU) of KNHMRK [6mer-2-929] is below 30 RU. Could you check?
yes

Hello, I'm reviewing records and need to know if Binding affinity (RU) of RMHAKK [6mer-2-982] is below 30 RU. Could you check?
no

Hello, I'm reviewing records and need to know if Binding affinity (RU) of KYKKKR [6mer-2-908] is below 30 RU. Could you check?
no
